# STUDY TARGET: hDRD2 (Homo sapiens (Human), UniProt P14416)
# ASSAY EXPLANATION: cell-based
MEASUREMENT NAME: EC50 (µM)
Answers are plain numbers, in µM.

Param item = `C[C@@H](O)[C@@H]1NC(=O)[C@H](CCCCN)NC(=O)[C@@H](Cc2c[nH]c3ccccc23)NC(=O)[C@H](Cc2ccncc2)NC(=O)[C@H](Cc2ccccc2)NC(=O)[C@H](CCCNC(=N)N)NC(=O)[C@H](NC[C@H](CCCCNC(=O)CSC[C@@H]2C[C@@H]3c4cccc5[nH]cc(c45)C[C@H]3N(C)C2)NC(=O)CSC[C@@H]2C[C@@H]3c4cccc5[nH]cc(c45)C[C@H]3N(C)C2)CCCCNC(=O)[C@H](Cc2ccccc2)NC1=O` ; retrieve measured EC50.
0.0155

###

# STUDY TARGET: hDRD2 (Homo sapiens (Human))
# ASSAY EXPLANATION: cell-based
For each record, write down the corresponding EC50.

// solved cases for EC50 follow
MOLECULE	RESULT
CC(=O)N(CCCNC(CN[C@@H]1CCCCNC(=O)[C@H](Cc2ccc(F)cc2)NC(=O)[C@H]([C@@H](C)O)NC(=O)[C@H](CCCCN)NC(=O)[C@@H](Cc2c[nH]c3ccccc23)NC(=O)[C@H](Cc2ccccc2)NC(=O)[C@H](Cc2ccccc2)NC(=O)[C@H](CCCNC(=N)N)NC1=O)Cc1ccc(O)cc1)C[C@@H]1C[C@@H]2c3cccc4[nH]cc(c34)C[C@H]2N(C)C1 (single isomer, unassigned) [Compound 28A]	65.5 nM
C[C@@H](O)[C@@H]1NC(=O)[C@H](CCCCN)NC(=O)[C@@H](Cc2c[nH]c3ccccc23)NC(=O)[C@H](Cc2ccncc2)NC(=O)[C@H](Cc2ccccc2)NC(=O)[C@H](CCCNC(=N)N)NC(=O)[C@H](NC[C@H](Cc2ccc(O)cc2)NC(=O)CSC[C@@H]2C[C@@H]3c4cccc5[nH]cc(c45)C[C@H]3N(C)C2)CCCCNC(=O)[C@H](Cc2ccccc2)NC1=O	20.1 nM

Param item = `C[C@@H](O)[C@@H]1NC(=O)[C@H](CCCCN)NC(=O)[C@@H](Cc2c[nH]c3ccccc23)NC(=O)[C@H](Cc2ccccc2)NC(=O)[C@H](Cc2ccccc2)NC(=O)[C@H](CCCNC(=N)N)NC(=O)[C@H](NC[C@@H](Cc2ccc(O)cc2)NC(=O)CSC[C@@H]2C[C@@H]3c4cccc5[nH]cc(c45)C[C@H]3N(C)C2)CCCCNC(=O)[C@H](Cc2ccccc2)NC1=O` ; retrieve measured EC50.
62.6 nM

###

# STUDY TARGET: hSSTR2 (Homo sapiens (Human), UniProt P30874)
# Sequence (P30874 whole entry): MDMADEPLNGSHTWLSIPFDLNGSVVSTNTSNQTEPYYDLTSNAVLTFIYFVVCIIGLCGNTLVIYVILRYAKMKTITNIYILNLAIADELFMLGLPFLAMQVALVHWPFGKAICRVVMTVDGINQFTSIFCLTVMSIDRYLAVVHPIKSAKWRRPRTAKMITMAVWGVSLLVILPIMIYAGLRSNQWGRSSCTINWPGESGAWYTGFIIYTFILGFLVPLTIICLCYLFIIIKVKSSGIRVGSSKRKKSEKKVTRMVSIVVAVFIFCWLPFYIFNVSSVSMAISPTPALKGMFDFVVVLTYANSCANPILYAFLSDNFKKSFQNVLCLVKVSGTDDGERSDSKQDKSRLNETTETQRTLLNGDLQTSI
# ASSAY EXPLANATION: Intracellular calcium mobilization assay (FLIPR Calcium 4), hSSTR2;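 further: agonist activity read as intracellular calcium rise in cells expressing human SSTR2, loaded with a calcium-sensitive dye for 60 min at 37 °C, measured by FLIPR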
# Format: cell-based
# ASSAY CONTEXT: read-out: hSSTR2 % Emax ± SEM
Bridge positions count the residues as written; N and C are the ends. Square brackets hold non-standard residues; d marks the D form. Peptide text beside a SMILES is read from it. * marks the point of attachment. X2 = CN1C[C@H](CSCC(=O)*)C[C@@H]2c3cccc4[nH]cc(c34)C[C@H]21; 4Pal = N[C@@H](Cc1ccncc1)C(=O)O
MEASUREMENT NAME: Emax (%)
Give bare numbers, in %.

// solved cases for Emax follow
COMPOUND	Emax [%]
CC(=O)N(CCCN(C(C)=O)[C@@H]1CCCCNC(=O)[C@H](Cc2ccc(F)cc2)NC(=O)[C@H]([C@@H](C)O)NC(=O)[C@H](CCCCN)NC(=O)[C@@H](Cc2c[nH]c3ccccc23)NC(=O)[C@H](Cc2ccccc2)NC(=O)[C@H](Cc2ccccc2)NC(=O)[C@H](CCCNC(=N)N)NC1=O)C[C@@H]1C[C@@H]2c3cccc4[nH]cc(c34)C[C@H]2N(C)C1	98.7
C[C@@H](O)[C@@H]1NC(=O)[C@H](CCCCN)NC(=O)[C@@H](Cc2c[nH]c3ccccc23)NC(=O)[C@H](Cc2ccncc2)NC(=O)[C@H](Cc2ccccc2)NC(=O)[C@H](CCCNC(=N)N)NC(=O)[C@H](NC(=O)CSC[C@@H]2C[C@@H]3c4cccc5[nH]cc(c45)C[C@H]3N(C)C2)CCCCNC(=O)[C@H](Cc2ccc(O)cc2)NC1=O [Compound 25] (X2-[dK]RF[4Pal][dW]KTY; lactam 1-C)	93.9

Look up Emax with hSSTR2 (Homo sapiens (Human), UniProt P30874) for this compound: `C[C@@H](O)[C@@H]1NC(=O)[C@H](CCCCN)NC(=O)[C@@H](Cc2c[nH]c3ccccc23)NC(=O)[C@H](Cc2ccccc2)NC(=O)[C@H](Cc2ccccc2)NC(=O)[C@H](CCCNC(=N)N)NC(=O)[C@H](NCCCCC[C@@H]2C[C@@H]3c4cccc5[nH]cc(c45)C[C@H]3N(C)C2)CCCCNC(=O)[C@H](Cc2ccc(F)cc2)NC1=O`
98.8
